System: Plasmodium falciparum Sir2 (PF13_0152, Sir2A)
experiment-notes: pfSir2 binders on small-molecule microarrays, primary screen, biochemical, small-molecule microarray, 635 nm fluorescence (AID 1098);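 note: score merges spot fluorescence intensity with its signal-to-noise ratio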
setup-conditions: small-molecule microarray binding, fluorescence 635 nm; higher = more signal
result-type: composite z-score
Lab note: write the figure by itself, no unit.

molecule: CC(C)CON=C1C[C@@H](O)[C@@H](O)[C@@H]2[C@@H]3C(=O)N(C4CCCCC4)C(=O)[C@@H]3CC[C@H]12
composite z-score: 0.209
//
molecule: O=C1CCCC=C1C(O)CCOC(c1ccccc1)(c1ccccc1)c1ccccc1 (configuration not stated)
composite z-score: -0.0236
//
molecule: O=C1[C@H]2[C@H]3[C@H](O)[C@H](O)CC(=NOC[C@@H](O)COCc4ccco4)[C@H]3CC[C@H]2C(=O)N1C[C@@H]1CCCO1
composite z-score: 0.717
//
molecule: CON=C(C)CCC(=O)OC[C@H]1O[C@H](c2ccccc2)C=C[C@@H]1Oc1ccc(OC)cc1
composite z-score: 0.712
//
molecule: C=CC[C@@H]1C=C[C@H](ON=C(C)CCC(=O)OC[C@H]2O[C@H](C#Cc3ccccc3)C=C[C@@H]2Oc2ccc(C)cc2)[C@@H](CO)O1
composite z-score: 1.19

Consider now this further molecule.
Challenge: Find the measured composite z-score of `CC(C)CON=C1C[C@@H](O)[C@@H](O)[C@@H]2[C@@H]3C(=O)N(C(C)(C)C)C(=O)[C@@H]3CC[C@H]12` and report it.
Response given: 0.801
